Origin of the recorded values: paper PMC6680768

type: physicochemical
MEASUREMENT TYPE: logD
The answer should be a number; do not append a unit.

COMPOUND	logD
CC(C)C[C@H](NC(=O)C[C@H](O)[C@H](CC(C)C)NC(=O)[C@H](Cc1c[nH]cn1)NC(=O)CNC(=O)[C@@H](NC(=O)[C@H](C)NC(=O)[C@H](Cc1c[nH]c2ccccc12)NC(=O)[C@H](CCC(N)=O)NC(=O)[C@@H](Cc1ccccc1)NC(=O)CCOCCOCCNC(=O)[C@H](Cc1ccc(O)c(I)c1)n1cc(COCCOCCC(=O)NC[C@H]2CC[C@H](C(=O)N[C@@H](Cc3ccc4ccccc4c3)C(=O)NCCCC[C@H](NC(=O)N[C@@H](CCC(=O)O)C(=O)O)C(=O)O)CC2)nn1)C(C)C)C(N)=O [[^125I]I-BO530]	-0.52

Now let's try a different one.
Exercise: Identify measured logD associated with CC(C)C[C@H](NC(=O)C[C@H](O)[C@H](CC(C)C)NC(=O)[C@H](Cc1c[nH]cn1)NC(=O)CNC(=O)[C@@H](NC(=O)[C@H](C)NC(=O)[C@H](Cc1c[nH]c2ccccc12)NC(=O)[C@H](CCC(N)=O)NC(=O)[C@@H](Cc1ccccc1)NC(=O)CCOCCOCCNC(=O)[C@H](Cc1ccc(O)c(I)c1)n1cc(CCCCCCCC(=O)NC[C@H]2CC[C@H](C(=O)N[C@@H](Cc3ccc4ccccc4c3)C(=O)NCCCC[C@H](NC(=O)N[C@@H](CCC(=O)O)C(=O)O)C(=O)O)CC2)nn1)C(C)C)C(N)=O [[^125I]I-BO535]
Key: 1.07
